- TARGET_ENTITY: HER2 wild type Ba/F3 cell line (Homo sapiens)
- Sequence (P04626 whole entry, change not shown): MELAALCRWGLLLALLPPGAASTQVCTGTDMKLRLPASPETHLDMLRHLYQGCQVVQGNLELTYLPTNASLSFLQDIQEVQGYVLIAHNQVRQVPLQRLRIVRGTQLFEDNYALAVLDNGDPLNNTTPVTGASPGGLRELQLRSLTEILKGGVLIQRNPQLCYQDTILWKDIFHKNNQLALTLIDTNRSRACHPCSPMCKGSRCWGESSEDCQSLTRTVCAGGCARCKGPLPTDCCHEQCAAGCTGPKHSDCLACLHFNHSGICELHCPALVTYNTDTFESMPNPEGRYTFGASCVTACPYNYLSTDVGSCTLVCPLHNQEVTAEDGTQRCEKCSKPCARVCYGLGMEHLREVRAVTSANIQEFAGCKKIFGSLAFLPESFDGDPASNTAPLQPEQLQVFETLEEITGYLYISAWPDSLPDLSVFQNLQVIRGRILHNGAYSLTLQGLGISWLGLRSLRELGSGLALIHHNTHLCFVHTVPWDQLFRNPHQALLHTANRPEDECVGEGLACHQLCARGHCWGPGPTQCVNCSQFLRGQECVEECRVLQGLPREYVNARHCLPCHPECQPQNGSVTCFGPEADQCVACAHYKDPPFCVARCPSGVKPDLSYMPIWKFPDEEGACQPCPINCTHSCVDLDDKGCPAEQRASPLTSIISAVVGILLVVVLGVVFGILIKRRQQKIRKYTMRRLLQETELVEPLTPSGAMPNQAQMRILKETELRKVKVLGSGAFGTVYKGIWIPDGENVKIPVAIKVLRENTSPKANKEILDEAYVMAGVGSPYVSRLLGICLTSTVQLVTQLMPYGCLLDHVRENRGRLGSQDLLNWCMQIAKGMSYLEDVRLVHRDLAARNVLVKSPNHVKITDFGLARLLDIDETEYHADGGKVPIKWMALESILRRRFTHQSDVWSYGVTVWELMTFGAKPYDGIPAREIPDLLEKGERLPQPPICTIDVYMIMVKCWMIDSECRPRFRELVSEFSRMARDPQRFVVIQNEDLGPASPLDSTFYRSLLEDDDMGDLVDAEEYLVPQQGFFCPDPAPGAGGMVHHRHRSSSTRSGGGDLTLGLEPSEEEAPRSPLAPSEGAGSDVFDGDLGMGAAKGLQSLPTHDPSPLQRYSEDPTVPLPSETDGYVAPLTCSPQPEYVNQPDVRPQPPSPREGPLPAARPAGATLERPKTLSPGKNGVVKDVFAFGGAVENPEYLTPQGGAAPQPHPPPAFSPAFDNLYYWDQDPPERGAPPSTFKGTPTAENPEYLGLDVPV
- PROCEDURE_TEXT: Ba/F3 cell proliferation MTS assay, HER2 wild type
- Format: cell-based, Murine
- DETAILS: HER2 wild type Ba/F3 cells, 72 hours
OUTCOME_MEASURE: EC50

Example cases with answers are listed next.
> print(dat)
                                   compound           value
1  C=CC(=O)Nc1cccc(N(C(=O)OCc2csc3ccccc23)c2ccnc(Nc3ccn(C)n3)n2)c1 [Compound I-18]       > 1000 nM
2  C=CC(=O)Nc1cccc(N(C(=O)OCc2cc3ccccc3s2)c2ccnc(Nc3cnn(C)c3)n2)c1 [Compound I-7]   100 to 500 nM
3  C=CC(=O)Nc1cccc(N(C(=O)O[C@H](C)c2ccc(F)cc2)c2ccnc(Nc3ccn(C)n3)n2)c1 [Compound I-14]  500 to 1000 nM
4  C=CC(=O)Nc1cccc(N(C(=O)OCc2ccc(F)cc2)c2ccnc(Nc3cnn(CC(=O)NC)c3)n2)c1 [Compound I-31]        < 100 nM

Sample C=CC(=O)Nc1cccc(N(C(=O)OCc2ccc(F)nc2)c2ccnc(Nc3ccn(C)n3)n2)c1 [Compound I-12] — what was its EC50?
100 to 500 nM

Sample Cn1cc(Nc2nccc(N(C(=O)OCc3ccc(F)cc3)c3cccc(NC(=O)/C=C/CN4CCCCCC4)c3)n2)cn1 [Compound I-27] — what was its EC50?
< 100 nM

* * *

- TARGET_ENTITY: HER2 InsYVMA Ba/F3 cell line (Homo sapiens, UniProt P04626, DUP772-775, cells depend on it)
- Sequence (P04626 with tags, fused parts or gaps DUP772-775): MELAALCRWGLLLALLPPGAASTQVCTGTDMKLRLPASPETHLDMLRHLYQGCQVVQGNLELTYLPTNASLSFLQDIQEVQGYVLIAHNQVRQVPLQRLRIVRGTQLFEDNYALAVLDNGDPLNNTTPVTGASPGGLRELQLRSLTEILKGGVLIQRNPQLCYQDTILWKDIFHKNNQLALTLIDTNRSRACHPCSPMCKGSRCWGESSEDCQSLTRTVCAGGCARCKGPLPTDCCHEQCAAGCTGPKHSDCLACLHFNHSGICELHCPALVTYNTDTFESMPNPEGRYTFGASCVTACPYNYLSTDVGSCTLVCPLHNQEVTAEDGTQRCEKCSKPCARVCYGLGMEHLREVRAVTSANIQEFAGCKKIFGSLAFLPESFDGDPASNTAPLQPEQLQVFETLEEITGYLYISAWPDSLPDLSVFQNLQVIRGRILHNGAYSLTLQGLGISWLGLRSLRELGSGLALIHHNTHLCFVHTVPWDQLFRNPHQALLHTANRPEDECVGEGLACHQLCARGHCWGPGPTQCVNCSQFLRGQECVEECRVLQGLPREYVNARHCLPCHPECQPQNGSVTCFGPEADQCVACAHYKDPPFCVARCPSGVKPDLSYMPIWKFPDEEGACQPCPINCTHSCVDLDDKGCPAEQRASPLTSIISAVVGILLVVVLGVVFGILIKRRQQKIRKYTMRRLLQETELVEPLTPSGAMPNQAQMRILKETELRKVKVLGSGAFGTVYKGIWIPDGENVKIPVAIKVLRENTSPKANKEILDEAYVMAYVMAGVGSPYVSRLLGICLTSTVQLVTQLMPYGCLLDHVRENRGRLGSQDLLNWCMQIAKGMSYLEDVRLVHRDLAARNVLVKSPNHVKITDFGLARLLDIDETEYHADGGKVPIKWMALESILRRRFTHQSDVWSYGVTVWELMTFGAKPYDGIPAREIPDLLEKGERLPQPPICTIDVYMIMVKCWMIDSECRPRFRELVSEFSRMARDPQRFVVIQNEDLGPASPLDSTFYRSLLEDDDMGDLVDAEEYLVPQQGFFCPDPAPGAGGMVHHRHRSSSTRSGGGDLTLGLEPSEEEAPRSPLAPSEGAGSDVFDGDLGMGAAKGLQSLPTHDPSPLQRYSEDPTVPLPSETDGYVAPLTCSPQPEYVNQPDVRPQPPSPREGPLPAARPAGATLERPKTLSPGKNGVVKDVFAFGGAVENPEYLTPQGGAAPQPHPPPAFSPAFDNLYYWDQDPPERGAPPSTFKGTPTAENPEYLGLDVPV
- PROCEDURE_TEXT: Ba/F3 cell proliferation MTS assay, HER2 InsYVMA;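 further: murine Ba/F3 cells engineered to carry mutant HER2, viability read colorimetrically by MTS after 72 h of exposure, EC50 from sigmoidal non-linear regression of dose response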
- DETAILS: 72 hours
OUTCOME_MEASURE: EC50

Example cases with answers are listed next.
> print(dat)
                                   compound  outcome.measure           value
1  C=CC(=O)Nc1cccc(N(C(=O)OCc2cccc(F)c2)c2ccnc(Nc3ccn(C)n3)n2)c1             EC50   100 to 500 nM
2  C=CC(=O)Nc1cccc(N(C(=O)OCc2ccc(Cl)cc2)c2ccnc(Nc3ccn(C)n3)n2)c1             EC50       > 1000 nM
3  C=CC(=O)Nc1cccc(N(C(=O)O[C@H](C)c2ccc(F)cc2)c2ccnc(Nc3cnn(C)c3)n2)c1             EC50   100 to 500 nM
4  C=CC(=O)Nc1cccc(N(C(=O)OCc2ccc(F)cn2)c2ccnc(Nc3cnn(C)c3)n2)c1             EC50  500 to 1000 nM
5  C=CC(=O)Nc1cccc(N(C(=O)OCc2ccc(F)cc2)c2ccnc(Nc3cnn(C)c3C(F)(F)F)n2)c1             EC50   100 to 500 nM

Sample C=CC(=O)Nc1cccc(N(C(=O)OCc2ccc(F)cc2)c2ccnc(Nc3ccn(C)n3)n2)c1 — what was its EC50?
< 100 nM

Sample Cn1cc(Nc2nccc(N(C(=O)OCc3ccc(F)cc3)c3cccc(NC(=O)/C=C/CN4CCCCC4)c3)n2)cn1 — what was its EC50?
< 100 nM

Sample C=CC(=O)Nc1cccc(N(C(=O)OCc2ccc(F)cc2)c2ccnc(Nc3cnn(CC(=O)NC)c3)n2)c1 — what was its EC50?
< 100 nM

Sample C=CC(=O)Nc1cccc(N(C(=O)OCc2ccc(F)cc2)c2ccnc(Nc3cnn(C4CCN(C)CC4)c3)n2)c1 — what was its EC50?
< 100 nM

Sample C=CC(=O)Nc1cccc(N(C(=O)OCc2ccc(F)cc2)c2ccnc(Nc3cnn(C)c3)n2)c1 — what was its EC50?
< 100 nM

Sample Cn1cc(Nc2nccc(N(C(=O)OCc3ccc(F)cc3)c3cccc(NC(=O)/C=C/CN4CCCCCC4)c3)n2)cn1 — what was its EC50?
< 100 nM

Sample C=CC(=O)Nc1cccc(N(C(=O)OCc2ccccc2)c2ccnc(Nc3ccn(C)n3)n2)c1 — what was its EC50?
< 100 nM

Sample C=CC(=O)Nc1cccc(N(C(=O)OCc2ccc(F)cn2)c2ccnc(Nc3ccn(C)n3)n2)c1 — what was its EC50?
500 to 1000 nM

Sample C=CC(=O)Nc1cccc(N(C(=O)OCc2ccc(F)cc2)c2ccnc(Nc3cnn(C)c3C)n2)c1 — what was its EC50?
< 100 nM

Sample C=CC(=O)Nc1cccc(N(C(=O)OCc2cccc(F)c2)c2ccnc(Nc3cnn(C)c3)n2)c1 — what was its EC50?
< 100 nM

* * *

- TARGET_ENTITY: EGFR InsSVD Ba/F3 cell line (Homo sapiens, UniProt P00533, DUP768-770, cells depend on it)
- Sequence (P00533 with tags, fused parts or gaps DUP768-770): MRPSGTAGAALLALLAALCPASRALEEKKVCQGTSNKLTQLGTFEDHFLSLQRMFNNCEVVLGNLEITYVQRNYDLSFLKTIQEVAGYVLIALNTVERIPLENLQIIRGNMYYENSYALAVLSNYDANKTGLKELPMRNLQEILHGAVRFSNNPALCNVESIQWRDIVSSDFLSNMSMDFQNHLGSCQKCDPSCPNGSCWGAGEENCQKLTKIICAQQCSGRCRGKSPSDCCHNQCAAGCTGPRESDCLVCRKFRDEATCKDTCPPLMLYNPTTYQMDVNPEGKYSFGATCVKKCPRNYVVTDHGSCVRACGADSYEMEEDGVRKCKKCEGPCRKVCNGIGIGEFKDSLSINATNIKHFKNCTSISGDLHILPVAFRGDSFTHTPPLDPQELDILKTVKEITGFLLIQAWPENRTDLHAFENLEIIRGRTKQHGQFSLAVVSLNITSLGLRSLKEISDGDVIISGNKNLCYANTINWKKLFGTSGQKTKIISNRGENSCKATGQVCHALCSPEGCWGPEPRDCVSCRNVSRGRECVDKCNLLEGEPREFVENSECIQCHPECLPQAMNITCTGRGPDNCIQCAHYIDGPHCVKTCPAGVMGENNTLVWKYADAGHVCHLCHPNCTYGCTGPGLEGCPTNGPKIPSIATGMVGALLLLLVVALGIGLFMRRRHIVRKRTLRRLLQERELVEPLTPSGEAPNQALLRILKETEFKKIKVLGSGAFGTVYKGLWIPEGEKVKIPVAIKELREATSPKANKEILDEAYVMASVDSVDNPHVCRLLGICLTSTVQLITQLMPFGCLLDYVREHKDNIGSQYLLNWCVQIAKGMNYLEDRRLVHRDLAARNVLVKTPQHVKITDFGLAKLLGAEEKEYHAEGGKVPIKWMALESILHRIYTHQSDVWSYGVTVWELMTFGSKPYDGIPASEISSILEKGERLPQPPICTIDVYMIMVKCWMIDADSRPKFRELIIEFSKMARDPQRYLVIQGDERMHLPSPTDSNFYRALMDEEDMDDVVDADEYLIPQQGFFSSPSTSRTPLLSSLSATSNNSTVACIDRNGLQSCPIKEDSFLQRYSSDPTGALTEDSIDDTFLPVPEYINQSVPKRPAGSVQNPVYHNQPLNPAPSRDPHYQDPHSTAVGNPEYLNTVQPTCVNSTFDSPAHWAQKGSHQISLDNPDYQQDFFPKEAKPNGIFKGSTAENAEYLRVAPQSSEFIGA
- PROCEDURE_TEXT: Ba/F3 cell proliferation MTS assay, EGFR InsSVD
- DETAILS: EGFR InsSVD (D770_N771insSVD) Ba/F3 cells, 72 hours
pEC50: −log10 of the molar value.
Listing of recorded pEC50 by entry.

> print(dat)
                                   compound                             target.entity  outcome.measure   value
1  C=CC(=O)Nc1cccc(N(C(=O)O[C@@H](C)c2ccc(F)cc2)c2ccnc(Nc3cnn(C)c3)n2)c1 [Compound I-17]  EGFR InsSVD Ba/F3 cell line (Homo sapiens, UniProt P00533, DUP768-770, cells depend on it)            pEC50  > 7.00

Sample C=CC(=O)Nc1cccc(N(C(=O)OCc2ccc(F)cc2)c2ccnc(Nc3cnn(CC(=O)NC)c3)n2)c1 [Compound I-31] — what was its pEC50?
6.30 to 7.00

Sample C=CC(=O)Nc1cccc(N(C(=O)O[C@H](C)c2ccc(F)cc2)c2ccnc(Nc3cnn(C)c3)n2)c1 [Compound I-15] — what was its pEC50?
> 7.00

Sample C=CC(=O)Nc1cccc(N(C(=O)OCc2cccc(F)c2)c2ccnc(Nc3ccn(C)n3)n2)c1 [Compound I-2] — what was its pEC50?
> 7.00

Sample C=CC(=O)Nc1cccc(N(C(=O)O[C@@H](C)c2ccc(F)cc2)c2ccnc(Nc3ccn(C)n3)n2)c1 [Compound I-16] — what was its pEC50?
6.30 to 7.00

Sample C=CC(=O)Nc1cccc(N(C(=O)OCc2ccc(F)cc2)c2ccnc(Nc3cnn(C)c3)n2)c1 [Compound I-5] — what was its pEC50?
> 7.00

* * *

Listing of recorded pEC50 by entry.
- TARGET_ENTITY: EGFR InsASV Ba/F3 cell line (Homo sapiens, UniProt P00533, DUP767-769, cells depend on it)
- Sequence (P00533 with tags, fused parts or gaps DUP767-769): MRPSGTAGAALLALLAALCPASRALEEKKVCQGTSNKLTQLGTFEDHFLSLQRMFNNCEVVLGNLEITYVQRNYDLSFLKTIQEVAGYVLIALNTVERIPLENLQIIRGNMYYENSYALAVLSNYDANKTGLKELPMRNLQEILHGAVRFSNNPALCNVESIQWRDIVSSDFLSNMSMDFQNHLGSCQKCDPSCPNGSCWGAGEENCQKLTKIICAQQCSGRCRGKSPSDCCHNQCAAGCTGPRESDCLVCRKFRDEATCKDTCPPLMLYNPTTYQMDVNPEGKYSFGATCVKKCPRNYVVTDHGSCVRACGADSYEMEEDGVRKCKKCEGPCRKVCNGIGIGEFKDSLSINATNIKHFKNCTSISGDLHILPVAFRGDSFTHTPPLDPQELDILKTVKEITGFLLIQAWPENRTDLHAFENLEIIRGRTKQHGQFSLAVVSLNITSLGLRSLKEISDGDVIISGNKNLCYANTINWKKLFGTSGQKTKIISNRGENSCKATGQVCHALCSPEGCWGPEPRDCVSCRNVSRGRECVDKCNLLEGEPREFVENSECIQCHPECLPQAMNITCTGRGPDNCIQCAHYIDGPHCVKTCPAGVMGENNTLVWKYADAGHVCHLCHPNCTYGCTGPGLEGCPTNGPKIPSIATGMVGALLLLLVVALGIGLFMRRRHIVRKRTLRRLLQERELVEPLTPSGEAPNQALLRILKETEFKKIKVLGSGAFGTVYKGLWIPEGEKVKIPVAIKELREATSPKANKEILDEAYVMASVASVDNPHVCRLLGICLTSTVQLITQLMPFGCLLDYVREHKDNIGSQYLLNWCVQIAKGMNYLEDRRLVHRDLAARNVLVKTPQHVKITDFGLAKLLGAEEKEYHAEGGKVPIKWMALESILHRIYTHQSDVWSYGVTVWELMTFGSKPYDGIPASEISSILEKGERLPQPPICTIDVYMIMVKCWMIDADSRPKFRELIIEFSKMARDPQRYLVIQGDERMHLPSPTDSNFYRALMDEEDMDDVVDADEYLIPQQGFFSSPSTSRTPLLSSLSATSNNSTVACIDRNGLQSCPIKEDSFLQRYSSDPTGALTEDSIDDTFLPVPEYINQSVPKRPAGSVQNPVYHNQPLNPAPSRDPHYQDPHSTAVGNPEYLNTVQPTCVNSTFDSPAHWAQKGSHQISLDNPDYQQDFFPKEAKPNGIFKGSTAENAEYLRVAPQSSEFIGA
- PROCEDURE_TEXT: Ba/F3 cell proliferation MTS assay, EGFR InsASV
- DETAILS: EGFR InsASV (V769_D770insASV) Ba/F3 cells, 72 hours
pEC50: −log10 of the molar value.

> print(dat)
                  compound.structure.string   value
1  C=CC(=O)Nc1cccc(N(C(=O)OCc2csc3ccccc23)c2ccnc(Nc3cnn(C)c3)n2)c1  < 6.00

Sample C=CC(=O)Nc1cccc(N(C(=O)OCc2ccc(Cl)cc2)c2ccnc(Nc3ccn(C)n3)n2)c1 — what was its pEC50?
< 6.00

Sample C=CC(=O)Nc1cccc(N(C(=O)O[C@@H](C)c2ccc(F)cc2)c2ccnc(Nc3cnn(C)c3)n2)c1 — what was its pEC50?
6.30 to 7.00

Sample C=CC(=O)Nc1cccc(N(C(=O)OCc2ccc(F)nc2)c2ccnc(Nc3ccn(C)n3)n2)c1 — what was its pEC50?
< 6.00

* * *

- TARGET_ENTITY: EGFR InsASV Ba/F3 cell line (Homo sapiens, UniProt P00533, DUP767-769, cells depend on it)
- PROCEDURE_TEXT: Ba/F3 cell proliferation MTS assay, EGFR InsASV
- DETAILS: EGFR InsASV (V769_D770insASV) Ba/F3 cells, 72 hours
pEC50: −log10 of the molar value.
OUTCOME_MEASURE: pEC50

Example cases with answers are listed next.
> print(dat)
                  compound.structure.string                             target.entity  outcome.measure         value
1  C=CC(=O)Nc1cccc(N(C(=O)O[C@@H](C)c2ccc(F)cc2)c2ccnc(Nc3ccn(C)n3)n2)c1  EGFR InsASV Ba/F3 cell line (Homo sapiens, UniProt P00533, DUP767-769, cells depend on it)            pEC50  6.00 to 6.30
2  C=CC(=O)Nc1cccc(N(C(=O)OCc2ccc(F)cn2)c2ccnc(Nc3cnn(C)c3)n2)c1  EGFR InsASV Ba/F3 cell line (Homo sapiens, UniProt P00533, DUP767-769, cells depend on it)            pEC50        < 6.00
3  C=CC(=O)Nc1cccc(N(C(=O)O[C@H](C)c2ccc(F)cc2)c2ccnc(Nc3ccn(C)n3)n2)c1  EGFR InsASV Ba/F3 cell line (Homo sapiens, UniProt P00533, DUP767-769, cells depend on it)            pEC50        < 6.00

Sample C=CC(=O)Nc1cccc(N(C(=O)OCc2ccc(Cl)cc2)c2ccnc(Nc3cnn(C)c3)n2)c1 — what was its pEC50?
6.00 to 6.30

These entries and their values trace back to patent US10550112B2.
